System: Trypanosoma brucei brucei
METHOD NOTES: Activity of Trypanosoma brucei brucei recombinant Type I nitroreductase assessed as oxidised NADH level by spectrophotometric analysis
Activity calls are given as the source filed them. The rule behind the calls is not given here.
MEASURE NAME: Activity

>>> observed_value("O=[N+]([O-])c1ncn(CCCNS(=O)(=O)c2ccc(C(F)(F)F)cc2)n1")
"Active"
>>> observed_value("O=C(Cn1cnc([N+](=O)[O-])n1)NCc1ccccc1")
"Active"
>>> observed_value("O=C(NCCCCn1cnc([N+](=O)[O-])n1)c1ccc(C(F)(F)F)cc1")
"Active"

###

METHOD NOTES: Selectivity index, ratio of IC50 for rat L6 cells to IC50 for Trypanosoma brucei rhodesiense STIB900 trypomastigotes
MEASURE NAME: selectivity ratio

>>> observed_value("O=C(Cn1cnc([N+](=O)[O-])n1)Nc1nc2ccc(Cl)cc2s1")
3.4
>>> observed_value("O=C(NCCCn1cnc([N+](=O)[O-])n1)Nc1cc(C(F)(F)F)cc(C(F)(F)F)c1")
4
>>> observed_value("O=[N+]([O-])c1ncn(CCCCNS(=O)(=O)c2ccc(OC(F)(F)F)cc2)n1")
235
>>> observed_value("O=[N+]([O-])c1ncn(CCNS(=O)(=O)c2cc(C(F)(F)F)cc(C(F)(F)F)c2)n1")
3
>>> observed_value("O=C(NCCCCn1cnc([N+](=O)[O-])n1)c1ccc(C(F)(F)F)cc1")
208
>>> observed_value("Cc1ccc2nc(NC(=O)Cn3cnc([N+](=O)[O-])n3)sc2c1")
14.8
>>> observed_value("O=[N+]([O-])c1ncn(CCCNS(=O)(=O)c2ccc(C(F)(F)F)cc2)n1")
467
>>> observed_value("O=C(NCCCn1cnc([N+](=O)[O-])n1)c1ccc(-c2ccccc2)cc1")
199
>>> observed_value("O=C(NCCCn1cnc([N+](=O)[O-])n1)c1cc(C(F)(F)F)cc(C(F)(F)F)c1")
11.4
>>> observed_value("O=[N+]([O-])c1ncn(CCCNS(=O)(=O)c2ccc(Cl)s2)n1")
122
>>> observed_value("O=[N+]([O-])c1ncn(CCCCNS(=O)(=O)c2ccc(C(F)(F)F)cc2)n1")
240
>>> observed_value("O=[N+]([O-])c1ncn(CCCNS(=O)(=O)c2cc(C(F)(F)F)cc(C(F)(F)F)c2)n1")
9.6

###

Test system: Trypanosoma brucei brucei
METHOD NOTES: Antitrypanosomal activity against bloodstream form of Trypanosoma brucei brucei Lister 427 clone 221a overexpressing tet-inducible NTR in absence of tetracycline after 3 days
TEST CONDITIONS: 72 h
MEASURE NAME: IC50 (nM)

>>> observed_value("Nc1nc(N)nc(Nc2ccc([As]3SCC(CO)S3)cc2)n1 (centres undefined)")
3.4
>>> observed_value("O=C(NCCn1cnc([N+](=O)[O-])n1)c1ccc(C(F)(F)F)cc1")
1260
>>> observed_value("O=C(NCCCn1cnc([N+](=O)[O-])n1)Nc1cc(C(F)(F)F)cc(C(F)(F)F)c1")
810
>>> observed_value("O=[N+]([O-])c1ncn(CCCNS(=O)(=O)c2ccc(Cl)s2)n1")
4340

###

Below, each entry is listed with its recorded pIC50.
Tested on: L6
METHOD NOTES: Cytotoxicity against rat L6 cells
Format: cell-based
pIC50: −log10 of the molar value.
MEASURE NAME: pIC50

>>> observed_value("O=C(NCCn1cnc([N+](=O)[O-])n1)c1ccc(OC(F)(F)F)cc1")
"< 3.58"
>>> observed_value("O=C(NCCCCn1cnc([N+](=O)[O-])n1)c1ccc(OC(F)(F)F)cc1")
"< 3.57"
>>> observed_value("Cc1ccc(S(=O)(=O)NCCCn2cnc([N+](=O)[O-])n2)cc1")
"< 3.51"
>>> observed_value("O=[N+]([O-])c1ncn(CCNS(=O)(=O)Cc2ccccc2)n1")
"< 3.49"
>>> observed_value("Cn1ccnc1S(=O)(=O)NCCn1cnc([N+](=O)[O-])n1")
"< 3.48"
